The measurements presented in this section are drawn from paper PMC6112376.

# Tested on: HepG2 cells
# run-conditions: read-out: MMP assays IC50 (µM) HepG2; HepG2 cells; single number from one experiment
experimental-readout: IC50

CCCCCCCC[N+](C)(CCCCCCCC)CCCCCCCC.[Cl-] [N-Methyl-N,N-dioctyloctan-1-aminium chloride]: 10 µM
CC(C)(C)OC(=O)c1ccc(O)cc1 [tert-Butyl 4-hydroxybenzoate]: 35.5 µM

Now turn to the next compound.
Supply IC50 value. Item: Cc1ccc2oc(CN(Cc3ccccc3)C(=O)Nc3c(F)cc(F)cc3F)c(-c3ccc(Cl)cc3)c2c1 56.2 µM

###

# Test system: HepG2 cells
# measurement-description: cells
# run-conditions: Homo sapiens, HepG2, read-out: MMP assays efficacy (%) HepG2
Where a name gives a salt, the structure may show the parent alone.
experimental-readout: Emax (%)
Give just the number in %; leave the unit off.

Look over these answered cases.
Oc1cc(Cl)c(Cl)c(Cl)c1Cl: 121
N#CSCSc1nc2ccccc2s1: 73
O=C1c2ccccc2C(=O)c2cc(O)ccc21 [Compound 2-Hydroxyanthraquinone]: 120
Oc1ccc(Cl)c(Cl)c1Cl: 101
O=C1C(I)=CC(=C(c2cc(I)c(O)c(I)c2)c2ccccc2C(=O)O)C=C1I: 98
CCN1/C(=C/C=C/C=C/c2sc3ccccc3[n+]2CC)Sc2ccccc21 [Dithiazanine iodide]: 88
Cc1ccc2cc3c(ccc4ccccc43)c3c2c1CC3: 66
CC1CCCCC1NC(=O)Nc1ccccc1 (centres unmarked): 89
Cc1nnc2n1-c1sc(CCc3ccc(CC(C)C)cc3)cc1C(c1ccccc1Cl)=NC2C (centres unmarked): 108
COP(=S)(OC)Oc1c(Cl)cc(C)cc1Cl: 105

Now turn to the next compound.
Supply Emax value. Item: CCOc1ccccc1OCCN[C@H](C)Cc1ccc(OC)c(S(N)(=O)=O)c1 [Tamsulosin hydrochloride] 80
